target: Muscarinic acetylcholine receptor M3 (Homo sapiens, UniProt P20309); further: assay procedure not described here
Sequence (P20309 whole entry): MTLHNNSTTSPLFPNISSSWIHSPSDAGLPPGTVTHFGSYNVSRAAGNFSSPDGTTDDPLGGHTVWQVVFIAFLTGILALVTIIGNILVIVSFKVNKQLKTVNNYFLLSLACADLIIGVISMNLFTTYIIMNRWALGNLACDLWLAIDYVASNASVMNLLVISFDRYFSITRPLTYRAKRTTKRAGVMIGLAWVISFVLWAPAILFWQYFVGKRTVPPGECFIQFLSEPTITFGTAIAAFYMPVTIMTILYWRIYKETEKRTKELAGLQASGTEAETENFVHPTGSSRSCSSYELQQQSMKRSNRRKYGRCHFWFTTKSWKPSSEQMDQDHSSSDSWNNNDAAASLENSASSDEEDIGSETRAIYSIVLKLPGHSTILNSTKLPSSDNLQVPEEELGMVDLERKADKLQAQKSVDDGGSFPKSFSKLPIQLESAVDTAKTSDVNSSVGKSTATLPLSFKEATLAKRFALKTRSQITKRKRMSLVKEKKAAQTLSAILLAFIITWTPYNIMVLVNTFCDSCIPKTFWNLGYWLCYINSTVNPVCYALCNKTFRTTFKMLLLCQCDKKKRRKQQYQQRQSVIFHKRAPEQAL
List of AC50 values.

Here's what some known entries look like.
{"Molecule": "OC(CNCC(O)C1CCc2cc(F)ccc2O1)C1CCc2cc(F)ccc2O1 (stereo not given)", "Experimental System": "Muscarinic acetylcholine receptor M3 (Homo sapiens, UniProt P20309)", "AC50": "> 30 µM"}
{"Molecule": "Cc1cccc(C(C)c2cnc[nH]2)c1C (stereo not given)", "Experimental System": "Muscarinic acetylcholine receptor M3 (Homo sapiens, UniProt P20309)", "AC50": "> 30 µM"}
{"Molecule": "C=CCc1ccccc1OCC(O)CNC(C)C (stereo not given)", "Experimental System": "Muscarinic acetylcholine receptor M3 (Homo sapiens, UniProt P20309)", "AC50": "> 30 µM"}

Form field AC50 for item CCC(C(=O)O)c1ccc(N2Cc3ccccc3C2=O)cc1 (stereo not given) on Muscarinic acetylcholine receptor M3 (Homo sapiens, UniProt P20309): > 30 µM

Measured AC50 (Muscarinic acetylcholine receptor M3 (Homo sapiens, UniProt P20309)), entry C/C(O)=C(\C#N)C(=O)Nc1ccc(C(F)(F)F)cc1 [TERIFLUNOMIDE] : > 30 µM
